variants and their reported self-cleavage
B1: CPEB3 Ribozyme (parent)
chain: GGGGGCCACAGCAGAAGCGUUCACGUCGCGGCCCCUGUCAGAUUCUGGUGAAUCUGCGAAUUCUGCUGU

variants of: B1; assay: self-cleavage, relative activity (ratio to wild type); higher = more cleavage; co-transcriptional
The reply should be a number, written without any unit.

// known answers, use as guide
U38A G56A | 0.922
G31U C66A | 0.489
U46A A52C | 1.01
U21C G65C | 0.393
A13C G25C | 0.0875

Recorded self-cleavage for C32G A59G , please? 0.586

Recorded self-cleavage for G31U C32G , please? 0.177
